Assignment: determine reported activation at 1 µM for the given compounds.
molecular target: UniProt P30613; test: PKR WT Single Point Percent Activation Assay; assay type: biochemical

Would you mind telling me what activation at 1 µM value was observed for `C[C@H]1CN(Cc2ccc(F)cc2)CCN1C(=O)c1ccc(NS(=O)(=O)c2cccc3cccnc23)cc1` ?
101 to 500%

Would you mind telling me what activation at 1 µM value was observed for `O=C(c1ccc(NS(=O)(=O)c2cccc3cccnc23)cc1)N1C2CCC1CN(CC1CC1)C2` ?
101 to 500%

Would you mind telling me what activation at 1 µM value was observed for CC(c1ccc(F)cc1F)N1CCN(C(=O)c2ccc(NS(=O)(=O)c3cccc4cccnc34)cc2)[C@H](C)C1 (some centres unmarked) ?
101 to 500%

Would you mind telling me what activation at 1 µM value was observed for `CCOC(=O)N1CCN(C(=O)c2ccc(NS(=O)(=O)c3cccc4cccnc34)cc2)c2ccccc21` ?
101 to 500%

Would you mind telling me what activation at 1 µM value was observed for `C[C@H]1CN(Cc2ccc(F)cc2)CCN1C(=O)c1ccc(NS(=O)(=O)c2cccc3cccnc23)cc1Cl` ?
1 to 100%

Would you mind telling me what activation at 1 µM value was observed for CC1CN(Cc2cc(F)c(F)cc2F)CC(C)N1C(=O)c1ccc(NS(=O)(=O)c2cccc3cccnc23)cc1 (centres unmarked) ?
101 to 500%

Would you mind telling me what activation at 1 µM value was observed for COc1ccccc1N1CCN(C(=O)c2ccc(NS(=O)(=O)c3cccc4cccnc34)cc2)C(C)C1 (centres unmarked) ?
101 to 500%

Would you mind telling me what activation at 1 µM value was observed for `O=C(c1ccc(NS(=O)(=O)c2cccc3cccnc23)cc1)N1CCN(Cc2cc(F)cc(F)c2)C[C@@H]1c1ccccc1` ?
1 to 100%

* * *

molecular target: PKR R510Q (Homo sapiens, UniProt P30613, R510Q); experiment: PKR R510Q Single Point Percent Activation Assay; format: biochemical; settings: read-out: Act. % 510Q
Sequence (P30613 whole entry R510Q): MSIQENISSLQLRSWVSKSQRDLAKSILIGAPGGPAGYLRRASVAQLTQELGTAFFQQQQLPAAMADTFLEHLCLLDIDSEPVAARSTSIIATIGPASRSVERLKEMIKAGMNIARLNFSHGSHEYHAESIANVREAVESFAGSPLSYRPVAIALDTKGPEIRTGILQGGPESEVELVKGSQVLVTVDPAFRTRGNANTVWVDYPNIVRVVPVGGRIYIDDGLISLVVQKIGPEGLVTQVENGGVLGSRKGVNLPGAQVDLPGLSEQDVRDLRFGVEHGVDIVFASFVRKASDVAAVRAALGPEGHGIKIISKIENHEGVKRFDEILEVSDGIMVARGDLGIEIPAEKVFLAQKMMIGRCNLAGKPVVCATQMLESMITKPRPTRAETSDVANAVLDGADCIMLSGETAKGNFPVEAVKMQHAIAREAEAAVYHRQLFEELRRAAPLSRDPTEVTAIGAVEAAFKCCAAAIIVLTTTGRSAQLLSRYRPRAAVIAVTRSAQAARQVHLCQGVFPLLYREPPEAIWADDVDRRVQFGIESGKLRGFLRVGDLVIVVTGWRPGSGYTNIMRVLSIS
Assignment: determine reported activation at 1 µM for the given compounds.

Would you mind telling me what activation at 1 µM value was observed for `C[C@H]1CN(Cc2ccc(F)cc2)CCN1C(=O)c1ccc(NS(=O)(=O)c2cccc3cccnc23)cc1` ?
101 to 500%

Would you mind telling me what activation at 1 µM value was observed for `O=C1CN(C(=O)c2ccc(NS(=O)(=O)c3cccc4cccnc34)cc2)CCN1CC1CC1` ?
1 to 100%

Would you mind telling me what activation at 1 µM value was observed for `O=C(c1ccc(NS(=O)(=O)c2cccc3cccnc23)cc1)N1CCN(Cc2cc(F)cc(F)c2)C[C@@H]1c1ccccc1` ?
101 to 500%

Would you mind telling me what activation at 1 µM value was observed for CC(c1cc(F)c(F)cc1F)N1CCN(C(=O)c2ccc(NS(=O)(=O)c3cccc4cccnc34)cc2)[C@@H](C)C1 (some centres unmarked) ?
1 to 100%

Would you mind telling me what activation at 1 µM value was observed for CC(c1ccc(Cl)c(F)c1)N1CCN(C(=O)c2ccc(NS(=O)(=O)c3cccc4cccnc34)cc2)[C@H](C)C1 (some centres unmarked) ?
101 to 500%

Would you mind telling me what activation at 1 µM value was observed for `C[C@@H]1CN(Cc2ccccc2)CCN1C(=O)c1ccc(NS(=O)(=O)c2cccc3cccnc23)cc1` ?
101 to 500%

Would you mind telling me what activation at 1 µM value was observed for `O=C(c1ccc(NS(=O)(=O)c2cccc3cccnc23)cc1)N1CCN(CC2CC2)C[C@@H]1c1ccccc1` ?
1 to 100%

Would you mind telling me what activation at 1 µM value was observed for `O=C(c1ccc(NS(=O)(=O)c2cccc3cccnc23)cc1)N1CCN(Cc2ccc(F)cc2)c2ccccc21` ?
1 to 100%

Would you mind telling me what activation at 1 µM value was observed for `C[C@H]1CN(C(=O)OCC2CC2)CCN1C(=O)c1ccc(NS(=O)(=O)c2cccc3cccnc23)cc1` ?
1 to 100%

Would you mind telling me what activation at 1 µM value was observed for `C[C@@H]1CN(C(=O)O[C@@H]2CCOC2)CCN1C(=O)c1ccc(NS(=O)(=O)c2cccc3cccnc23)cc1` ?
1 to 100%

Would you mind telling me what activation at 1 µM value was observed for `C[C@H]1CN(CC2CCCC2)CCN1C(=O)c1ccc(NS(=O)(=O)c2cccc3cccnc23)cc1Cl` ?
1 to 100%

Would you mind telling me what activation at 1 µM value was observed for CC1CN(Cc2cc(F)cc(F)c2)CC(C)N1C(=O)c1ccc(NS(=O)(=O)c2cccc3cccnc23)cc1 (centres unmarked) ?
101 to 500%

Would you mind telling me what activation at 1 µM value was observed for `C[C@@H]1CN(C(=O)OC2CCCCC2)CCN1C(=O)c1ccc(NS(=O)(=O)c2cccc3cccnc23)cc1` ?
1 to 100%

Would you mind telling me what activation at 1 µM value was observed for `O=C(c1ccc(NS(=O)(=O)c2cccc3cccnc23)cc1)N1CCN(Cc2cc(F)cc(F)c2)c2ccccc21` ?
1 to 100%

Would you mind telling me what activation at 1 µM value was observed for C[C@@H]1CN(C(=O)OC2CCCOC2)CCN1C(=O)c1ccc(NS(=O)(=O)c2cccc3cccnc23)cc1 (some centres unmarked) ?
101 to 500%

Would you mind telling me what activation at 1 µM value was observed for `C[C@@H]1CN(CC2CCC2)CCN1C(=O)c1ccc(NS(=O)(=O)c2cccc3cccnc23)cc1` ?
101 to 500%

Would you mind telling me what activation at 1 µM value was observed for `C[C@@H]1CN(CC2CCCCC2)CCN1C(=O)c1ccc(NS(=O)(=O)c2cccc3cccnc23)cc1` ?
101 to 500%

* * *

target: PKR wt (Homo sapiens); assay: PKR WT Single Point Percent Activation Assay; format: biochemical
Sequence (P30613 whole entry): as the sequence (P30613 whole entry R510Q) above, with Q510R counted along it
Assignment: determine reported activation at 1 µM for the given compounds.

Would you mind telling me what activation at 1 µM value was observed for CC[C@H]1CN(C(C)c2cc(F)c(F)c(F)c2)CCN1C(=O)c1ccc(NS(=O)(=O)c2cccc3cccnc23)cc1 (stereo partly shown) ?
1 to 100%

Would you mind telling me what activation at 1 µM value was observed for CC(c1ccc(Cl)c(F)c1)N1CCN(C(=O)c2ccc(NS(=O)(=O)c3cccc4cccnc34)cc2)[C@H](C)C1 (stereo partly shown) ?
1 to 100%

Would you mind telling me what activation at 1 µM value was observed for `C[C@@H]1CN(C[C@@H]2CCCO2)CCN1C(=O)c1ccc(NS(=O)(=O)c2cccc3cccnc23)cc1` ?
101 to 500%

Would you mind telling me what activation at 1 µM value was observed for `C[C@@H]1CN(C(=O)OCC2CC2)CCN1C(=O)c1ccc(NS(=O)(=O)c2cccc3cccnc23)cc1` ?
1 to 100%

Would you mind telling me what activation at 1 µM value was observed for `O=C(c1ccc(NS(=O)(=O)c2cccc3cccnc23)cc1)N1CC2CCC(C1)N2Cc1ccccc1` ?
101 to 500%

Would you mind telling me what activation at 1 µM value was observed for `C[C@@H]1CN(C(=O)c2ccc(NS(=O)(=O)c3cccc4cccnc34)cc2)C[C@H](C)N1C(=O)c1ccccn1` ?
101 to 500%

Would you mind telling me what activation at 1 µM value was observed for `C[C@H]1CN(CC2CCCCC2)CCN1C(=O)c1ccc(NS(=O)(=O)c2cccc3cccnc23)cc1` ?
1 to 100%

Would you mind telling me what activation at 1 µM value was observed for `CCOC(=O)N1CCN(C(=O)c2ccc(NS(=O)(=O)c3cccc4cccnc34)cc2)[C@@H](C)C1` ?
101 to 500%

Would you mind telling me what activation at 1 µM value was observed for `C[C@@H]1CN(C(=O)OC2CCCC2)CCN1C(=O)c1ccc(NS(=O)(=O)c2cccc3cccnc23)cc1` ?
101 to 500%

Would you mind telling me what activation at 1 µM value was observed for `O=C(c1ccc(NS(=O)(=O)c2cccc3cccnc23)cc1)N1CCN(CC2CC2)C[C@@H]1c1ccccc1` ?
1 to 100%

Would you mind telling me what activation at 1 µM value was observed for CC(c1cc(F)cc(F)c1)N1CCN(C(=O)c2ccc(NS(=O)(=O)c3cccc4cccnc34)cc2)[C@H](C)C1 (stereo partly shown) ?
101 to 500%

Would you mind telling me what activation at 1 µM value was observed for `C[C@@H]1CN(Cc2cc(F)c(F)cc2F)CCN1C(=O)c1ccc(NS(=O)(=O)c2cccc3cccnc23)cc1` ?
1 to 100%

Would you mind telling me what activation at 1 µM value was observed for `CC[C@H]1CN(Cc2ccc(F)cc2)CCN1C(=O)c1ccc(NS(=O)(=O)c2cccc3cccnc23)cc1` ?
101 to 500%

Would you mind telling me what activation at 1 µM value was observed for CC(c1ccc(F)cc1)N1CCN(C(=O)c2ccc(NS(=O)(=O)c3cccc4cccnc34)cc2)[C@H](C)C1 (stereo partly shown) ?
101 to 500%

Would you mind telling me what activation at 1 µM value was observed for `O=C(c1ccc(NS(=O)(=O)c2cccc3cccnc23)cc1)N1C2CCC1CN(Cc1ccc(F)cc1)C2` ?
1 to 100%

Would you mind telling me what activation at 1 µM value was observed for `C[C@H]1CN(Cc2cc(F)cc(F)c2F)CCN1C(=O)c1ccc(NS(=O)(=O)c2cccc3cccnc23)cc1` ?
101 to 500%
